# PROCEDURE_DETAILS: Apparent permeability across human Caco2 cells at 0.5 mM measured after 5 to 60 mins by UPLC-MS/MS analysis
# Type: ADME, cell-based
# DETAILS: caco-2, 500 µM
ENDPOINT: Papp

# COMPOUND, ENDPOINT, MEASURED_VALUE
records = [
    ("CC(C)[C@H](N)C(=O)O[C@@H]1C[C@H]2C(=O)N[C@@H](CO)C(=O)N2C1", "Papp", "Permeable"),
    ("CCC(C)[C@H](N)C(=O)OC[C@@H]1NC(=O)[C@@H]2C[C@@H](O)CN2C1=O (some centres undefined)", "Papp", "Permeable"),
    ("CC(C)[C@H](N)C(=O)OC[C@@H]1NC(=O)[C@@H]2C[C@@H](O)CN2C1=O", "Papp", "Permeable"),
]

---

# PROCEDURE_DETAILS: Terminal half-life in Sprague-Dawley rat at 12 mg/kg, po by UPLC-MS/MS analysis
# Assay type: ADME, organism-based
# DETAILS: in vivo, read-out: beta t1/2 (converted)
ENDPOINT: half-life (h)
Respond with the bare value in h.

Fill in: half-life of `O=C1N[C@@H](CO)C(=O)N2C[C@H](O)C[C@@H]12` is ___
2.12

---

# PROCEDURE_DETAILS: Tmax in Sprague-Dawley rat assessed as JBP485 level at 12 mg/kg equiv of JBP485 administered orally by UPLC-MS/MS analysis
# Format: ADME, organism-based
# DETAILS: in vivo, po
ENDPOINT: Tmax (min)

Study these solved cases before continuing.
# COMPOUND, MEASURED_VALUE
rows = [
    ("N[C@@H](Cc1ccccc1)C(=O)OC[C@@H]1NC(=O)[C@@H]2C[C@@H](O)CN2C1=O", 60),
    ("CC(C)[C@H](N)C(=O)O[C@@H]1C[C@H]2C(=O)N[C@@H](CO)C(=O)N2C1", 24.6),
]

1: CCC(C)[C@H](N)C(=O)OC[C@@H]1NC(=O)[C@@H]2C[C@@H](O)CN2C1=O (stereo not given in full)
2: CC(C)C[C@H](N)C(=O)OC[C@@H]1NC(=O)[C@@H]2C[C@@H](O)CN2C1=O
3: CC(C)[C@H](N)C(=O)OC[C@@H]1NC(=O)[C@@H]2C[C@@H](O)CN2C1=O
List by increasing Tmax. Your task in answering is to list the labels in the requested order.
3, 1, 2

---

# PROCEDURE_DETAILS: AUC (0 to t) in Sprague-Dawley rat at 6 mg/kg, iv by UPLC-MS/MS analysis
# Assay type: ADME, organism-based
# DETAILS: in vivo
ENDPOINT: AUCt (µM·h)
Respond with the bare value in µM·h.

Fill in: AUCt of `O=C1N[C@@H](CO)C(=O)N2C[C@H](O)C[C@@H]12` is ___
194

---

Each entry below lists one item and its recorded half-life at 5000 µM value.
# PROCEDURE_DETAILS: Half life in 0.1 M HCl at 5 mM by HPLC analysis
# Format: physicochemical

Study these solved cases before continuing.
# COMPOUND, half-life at 5000 µM
rows = [
    ("CC(C)[C@H](N)C(=O)OC[C@@H]1NC(=O)[C@@H]2C[C@@H](O)CN2C1=O", "> 1200 min"),
    ("CCC(C)[C@H](N)C(=O)OC[C@@H]1NC(=O)[C@@H]2C[C@@H](O)CN2C1=O (stereo partly specified)", "> 1200 min"),
]

Fill in: half-life at 5000 µM of `CC(C)C[C@H](N)C(=O)OC[C@@H]1NC(=O)[C@@H]2C[C@@H](O)CN2C1=O` is ___
> 1200 min

Fill in: half-life at 5000 µM of `O=C1N[C@@H](CO)C(=O)N2C[C@H](O)C[C@@H]12` is ___
> 1200 min

Fill in: half-life at 5000 µM of `N[C@@H](Cc1ccccc1)C(=O)OC[C@@H]1NC(=O)[C@@H]2C[C@@H](O)CN2C1=O` is ___
> 1200 min

Fill in: half-life at 5000 µM of `CC(C)[C@H](N)C(=O)O[C@@H]1C[C@H]2C(=O)N[C@@H](CO)C(=O)N2C1` is ___
> 1200 min

---

# PROCEDURE_DETAILS: Half life in pH 6.8 phosphate buffer at 5 mM by HPLC analysis
# Format: physicochemical
ENDPOINT: half-life at 5000 µM (h)

Study these solved cases before continuing.
# MOLECULE, ENDPOINT, UNIT_ABBREVIATION, MEASURED_VALUE
rows = [
    ("N[C@@H](Cc1ccccc1)C(=O)OC[C@@H]1NC(=O)[C@@H]2C[C@@H](O)CN2C1=O", "half-life at 5000 µM", "h", 2.6),
    ("CC(C)[C@H](N)C(=O)O[C@@H]1C[C@H]2C(=O)N[C@@H](CO)C(=O)N2C1", "half-life at 5000 µM", "h", 11.4),
    ("CCC(C)[C@H](N)C(=O)OC[C@@H]1NC(=O)[C@@H]2C[C@@H](O)CN2C1=O (stereo partly specified)", "half-life at 5000 µM", "h", 11.6),
]

a: CC(C)[C@H](N)C(=O)OC[C@@H]1NC(=O)[C@@H]2C[C@@H](O)CN2C1=O
b: CC(C)C[C@H](N)C(=O)OC[C@@H]1NC(=O)[C@@H]2C[C@@H](O)CN2C1=O
When their half-life at 5000 µM values are compared, which is larger, a or b ? Lab note: record the label of whichever item you select.
a
(a: 7.7 h, b: 2.6 h)

---

# PROCEDURE_DETAILS: Oral bioavailability in rat
# Assay type: ADME, organism-based
# DETAILS: in vivo
Where a SMILES comes first, the peptide text is derived from it. [ ]: non-standard residue; d: D form. Hyp = O=C(O)[C@@H]1C[C@@H](O)CN1
ENDPOINT: bioavailability

Fill in: bioavailability of O=C(O)[C@H](CO)NC(=O)[C@@H]1C[C@@H](O)CN1 (H-[Hyp]-Ser-OH) is ___
≤ 100%

---

# PROCEDURE_DETAILS: Oral bioavailability in Sprague-Dawley rat assessed as JBP485 level at 12 mg/kg equiv of JBP485 by UPLC-MS/MS analysis
# Type: ADME, organism-based
# DETAILS: in vivo
ENDPOINT: F (%)

Study these solved cases before continuing.
# COMPOUND, F (%)
rows = [
    ("CCC(C)[C@H](N)C(=O)OC[C@@H]1NC(=O)[C@@H]2C[C@@H](O)CN2C1=O (stereo not given in full)", 31.6),
    ("CC(C)C[C@H](N)C(=O)OC[C@@H]1NC(=O)[C@@H]2C[C@@H](O)CN2C1=O", 7.4),
    ("CC(C)[C@H](N)C(=O)OC[C@@H]1NC(=O)[C@@H]2C[C@@H](O)CN2C1=O", 50.1),
]

A: CC(C)[C@H](N)C(=O)O[C@@H]1C[C@H]2C(=O)N[C@@H](CO)C(=O)N2C1
B: N[C@@H](Cc1ccccc1)C(=O)OC[C@@H]1NC(=O)[C@@H]2C[C@@H](O)CN2C1=O
When their F values are compared, which is larger, A or B ? Lab note: record the label of whichever item you select.
A
(A: 36%, B: 8.7%)

---

# PROCEDURE_DETAILS: Half life in Sprague-Dawley rat plasma at 5 mM by HPLC analysis
# Assay type: ADME, cell-free
ENDPOINT: half-life at 5000 µM (min)

# MOLECULE, half-life at 5000 µM [min]
measured = [
    ("CC(C)[C@H](N)C(=O)OC[C@@H]1NC(=O)[C@@H]2C[C@@H](O)CN2C1=O", 174),
    ("N[C@@H](Cc1ccccc1)C(=O)OC[C@@H]1NC(=O)[C@@H]2C[C@@H](O)CN2C1=O", 17.4),
]

a: CC(C)C[C@H](N)C(=O)OC[C@@H]1NC(=O)[C@@H]2C[C@@H](O)CN2C1=O
b: CCC(C)[C@H](N)C(=O)OC[C@@H]1NC(=O)[C@@H]2C[C@@H](O)CN2C1=O (stereo partly specified)
c: CC(C)[C@H](N)C(=O)O[C@@H]1C[C@H]2C(=O)N[C@@H](CO)C(=O)N2C1
List by increasing half-life at 5000 µM. Your task in answering is to list the labels in the requested order.
a, b, c

---

# PROCEDURE_DETAILS: Half life in pH 5.8 phosphate buffer at 5 mM by HPLC analysis
# Assay type: physicochemical
ENDPOINT: half-life at 5000 µM

Study these solved cases before continuing.
# MOLECULE, MEASURED_VALUE
data = [
    ("CC(C)[C@H](N)C(=O)O[C@@H]1C[C@H]2C(=O)N[C@@H](CO)C(=O)N2C1", "> 20 h"),
    ("CC(C)C[C@H](N)C(=O)OC[C@@H]1NC(=O)[C@@H]2C[C@@H](O)CN2C1=O", "14.7 h"),
    ("O=C1N[C@@H](CO)C(=O)N2C[C@H](O)C[C@@H]12", "> 20 h"),
    ("CC(C)[C@H](N)C(=O)OC[C@@H]1NC(=O)[C@@H]2C[C@@H](O)CN2C1=O", "> 20 h"),
    ("CCC(C)[C@H](N)C(=O)OC[C@@H]1NC(=O)[C@@H]2C[C@@H](O)CN2C1=O (stereo partly specified)", "> 20 h"),
]

Moving on to the next molecule.
Fill in: half-life at 5000 µM of `N[C@@H](Cc1ccccc1)C(=O)OC[C@@H]1NC(=O)[C@@H]2C[C@@H](O)CN2C1=O` is ___
8.2 h
